Experiment: soluble on expression in E. coli; label from the status in PepcDB or PDB records
reportedMetric: soluble on expression in E. coli

Request: What value of measured soluble on expression in E. coli is listed for MDVRPYEGGRFEKIGSEEAHTIETFERRIHGTPHSEPQRQVSSKQYTERRTYGRDENGEIVVKIEKNPSEPVRPASPVRPVTPVGGENELSRHLLQPIQPLHIPRIDIQPANSSRHASPRHKLQYDEVSPRSGSINMLSPRSGHSASSRSGAGSRQSNVSVNSANVPLKKVTKKSRFVSIHDGRPVSPYTETVSFEVAIPFQPDRYSSASARSFSSSPHVSRRPSECAYLMENPLYQD ?
Result: not soluble

Request: What value of measured soluble on expression in E. coli is listed for SLLPFKENRGLIFLDPPFEVKNEFQKLLEALKKIKLRVLNNTVLIWYPIKDLSLVCDVYHNYKNIGFKETMIIEYELLNSDKNMVKCGLMLINPPNIRGELEKLTEYLSGTLNLKFTYIYL ?
Result: not soluble

Request: What value of measured soluble on expression in E. coli is listed for MGSDKIHHHHHHMKILFLSHLDMNLYLFRRPIMEALRKEGHEVIAMCPKGEYFDRFKELGIKAISYEISRESLNPFKELKTLLSIAQKLSELKPDILHTFMLKPNIYGTLASKIASIPYVICSVTGLGSFYIEESFKSRAIRYLIETLSRIVFKIAKKVVFQNEDDRQLFIQKGLVESSKTHLIKGSGINTKLFDPALISPSTLVRYRQELGLEKKHVVLMVARAIAHKGVREYYEAARLLGAFTSDSHLAFLFVGDTDEGNPSCVSSKELYSPHVLWLGHREDILELMALCDIFVLPSYREGIPRTLLEASSLAKPMVTSLAVGCKEVVKEGENGFLVPVGDTKALAQKIHYLVQNPALRLSMGEKARQIAQKEFDVSIIVKAHLELYKEVRGDLQKTL ?
Result: not soluble

----------
Assay: soluble on expression in E. coli; label from the status in PepcDB or PDB records
reportedMetric: soluble on expression in E. coli

Here is how some sequences turned out for soluble on expression in E. coli.
Request: What value of measured soluble on expression in E. coli is listed for MNKEMTLLPPPELVQYVGGDFKKVGKEFLKHFIQIGALKSNEKVLDVGCGVGRMAVPLMNYLNDDGAYYGFDLFKDGITWCQNNISTMRNNFHFEHVDIYNQFYNPEGKEDASQYRFPYEDGTFDFIFLTSVFTHLLPKELEHYVSEIVRVLKKDGRCFITFFLINPESSYYLNAGQSTLGFYHRIENCYVVNKDIPNFAVAYPETDICNLLNKYGLEIINKPHYGLWCGRHEYTSYQDIVLTKKSLEHHHHHH ?
Result: not soluble

Request: What value of measured soluble on expression in E. coli is listed for MGSDKIHHHHHHMLASDLLVIDFAQKDDVLKLYPEAPLLSSDKAQWDGIQLQYHRHPPHQLSENHSKQHRIIIHDRSPSPPMVEEMIEHRFQKRQFGYGDVTVVPADVLNSAYWNTEYEFITLSFEARTFARHTFDLTTATDIELVPSFSKPDQLIYSLGFALKSELESSGVGSRLYIDSLTAALMTHLLRHYSAQRSISRPQSGLAKCQLQKVIDFINQNLEQDLALAELAAIVQMSPSYFSTLFKHSTGLAPHQYVIQCRVDRAKQLLRQSNLTIAEIAYSLGFTHQSHLSRHFKRLVGVSPKVFIKSQ ?
Result: not soluble

Request: What value of measured soluble on expression in E. coli is listed for MWKWEAENDAKGVVVIAHNILEHTGRYAYVITMLRRNGYHVIMGDLPGQGQTSRANKGQIENFQTYHESLLDWLKIANEYKIPTYVLGVGLGGLILLNLLEKVELPIEGMMLISPMLELQKNGKNRKDKLVSNIGKISKDTRFNVGVEPKDLTRNLEIVEETVNDGLMLKKATYHWYNTINETMKDTMAHIHDIQPMPTLLMYGTKDLIVDTRAIDEFKEKYQTPELYFKAWQGFYHEVHNEPERDEVMRYILTFLNNSVN ?
Result: not soluble

Request: What value of measured soluble on expression in E. coli is listed for MDALIAQLQRQFRDYTISLYQQGFLDDQFTELKKLQDDGSPDFVSEVLSLFFEDCVKLISNMARALDTTGTVDFSQVGASVHQLKGSSSSVGAKRVKTLCVSFKECCEAKNYEGCVRCLQQVDIEYKALKTKLQDMFNLEKQIIQAGGIVPQVDIN ?
Result: soluble

Request: What value of measured soluble on expression in E. coli is listed for MAHHHHHHMPARGCAPVDEQIAGTDTEGRRYRSVEEMWGRELQGNLYDAKTGWYGKSLQYWGSVPATVSGVLGGMDHVHDIDIRDSRAFICCLPERGTTRALDCGAGIGRITKSLLCHLYDVTDLLEPVASMLEKAKEELEGFPVGDFFQSSMETAKLQPKTYDLIVIQWAAIYLTDEDFVAFLVRCKEALTPKGYIFFKENCASDDEFIVDKEDSSLTRSDKHYKRIFAAAGIEVVKEAMQGDWPDDLLKVKMYALR ?
Result: soluble

Request: What value of measured soluble on expression in E. coli is listed for MSSLTLTDKVSKMIHQDILSGKLKPGQKLVVAELKERYNVGASPIREALVQLSWNKYVKLEPQKGCWVASISLSELKELFESLRTIGQVLLAKAITNGNENWELNVLTSFHKLNKINLQDAKIEELREWENRYTDFHNSLLEGAQSPIMYQFYQDISHQITRYRHLNNNPQVISETYAQYLEEHEIMMKLTLSRDSEQAIKYLNNHYSKASDLISTYFSA ?
Result: not soluble

Continuing:
Request: What value of measured soluble on expression in E. coli is listed for MDIKIIKDKKNPLLNRRELDFIVKYEGSTPSRNDVRNKLAAMLNAPLELLVIQRIKTEYGMQESKGYAKLYEDADRMKQVEQEYVLKRNAVPGSETEGEEALEHHHHHH ?
Result: soluble

----------
Test: soluble on expression in E. coli; label from the status in PepcDB or PDB records
reportedMetric: soluble on expression in E. coli

Request: What value of measured soluble on expression in E. coli is listed for MRKIQVGVTGMTCAACSNSVEAALMNVNGVFKASVALLQNRADVVFDPNLVKEEDIKEEIEDAGFEAEILAEEW ?
Result: soluble

Request: What value of measured soluble on expression in E. coli is listed for HPICEVSKVASHLEVNCDKRNLTALPPDLPKDTTILHLSENLLYTFSLATLMPYTRLTQLNLDRAELTKLQVDGTLPVLGTLDLSHNQLQSLPLLGQTLPALTVLDVSFNRLTSLPLGALRGLGELQELYLKGNELKTLPPGLLTPTPKLEKLSLANNNLTELPAGLLNGLENLDTLLLQENSLYTIPKGFFGSHLLPFAFLHGNPWLCNCEILYFRRWLQDNAENVYVWKQGVDVKAMTSNVASVQCDNSDKFPVYKYPGKGCPTLGDEGDTDLYDYYPEEDTEGDKVR ?
Result: soluble

Request: What value of measured soluble on expression in E. coli is listed for MLKTILSIAGKPGLYKLISQGKNMLIVETVDAAKKRVPAYAHDKVISLADIAMYTDAEEVPLSEVLEAVKKKENGAVASINYKKASADELHAYFAEVLPNYDRDRVHNGDIKKLISWYNILVNNGITEFVEAPADSADKVEEAVAELEHHHHHH ?
Result: soluble

Request: What value of measured soluble on expression in E. coli is listed for MKVWITGAGGMMGSHLAEMLLAAGHDVYATYCRPTIDPSDLQFNGAEVDITDWCSVYDSIATFRPDAVFHLAAQSYPAVSWARPVETLTTNMVGTAIVFEALRRVRPHAKIIVAGSSAEYGFVDPSEVPINERRELRPLHPYGVSKAATDMLAYQYHKSYGMHTVVARIFNCTGPRKVGDALSDFVRRCTWLEHHPEQSAIRVGNLKTKRTIVDVRDLNRALMLMLDKGEAGADYNVGGSIAYEMGDVLKQVIAACKRDDIVPEVDPALLRPTDEKIIYGDCSKLAAITGWQQEICLTQTIADMFDYWRSKSESALMV ?
Result: not soluble

Request: What value of measured soluble on expression in E. coli is listed for CGGCGEDVVGDGAGVVALDRVFHVGCFVCSTCRAQLRGQHFYAVERRAYCEGCYVATLE ?
Result: soluble

Continuing:
Request: What value of measured soluble on expression in E. coli is listed for MNGTKQQRRRGDTRQRIQDVALGLFAEQGYEKTSLREIAESLDVTKAALYYHFKTKEEILVSIFEDLSRPLEDLIEWGREQPHTLETKQEIIRRYSEALAGAAPLFRFMQENQATVRDLRIGELFKHRMFGLRDILMDPEADLVDQVRCISALFTLHAGMFVLRDLEGDPEEQRAAVLEVATDLITQAHRGAAGA ?
Result: not soluble

Request: What value of measured soluble on expression in E. coli is listed for MAHPQEIREKLRRLYVSGEQTLETAALMCEIPQTTARAWKRADKEKGDDWDKMRAAYTLAGGGIEDLSRAMLAGFMVQYNSTMTMLQDSSTEDLPPSDRAKLLASLADAFTKTVSANARVMPETSKLATALELIEFLMAFVQEKHPKHLPAFVEVLEPFGVEVEKKFG ?
Result: not soluble

Request: What value of measured soluble on expression in E. coli is listed for MSLKITNVEAVALDVPIMVRHRKDPFVRQCNLVRIDTDSGISGYGYTSPGEWHSTAAKVVNDMFRDVLIGQNPCKINSVISSLSTRFNRHRATGAWASAVSMVDIGLWDLLGKLYGVPTSVLLGGARTEVPVYITFGLAEYSTEELVDTVSHLVDEGHTRFKMIVGGLRSRPITREESLRPGGSHWFQGFTEDLLLNDVKRVAAVREAIGPDKGLMVDGNGAFPLGEAKRLAQNLEPFNLIWFEEPVLGNDPDLLQRLRDQTTVPIAAGQNIGSLAAHRTLIESKSYDICQLNVTHCGGYSEALKIAHLAEAHNMPIATGGAQPHHNMHFHAGVQNGGLVEFHWLSWKVGEALFVDPPAPRNGFVSLTDEPGLGLEVRPDAIEKFRVEGHHHHHH ?
Result: soluble

Cited source: the DeepSol protein solubility set
